molecular target: Focal adhesion kinase 1 (Homo sapiens) (UniProt Q05397); assay: PTK2 protein binding on printed compound slides – biochemical, small-molecule microarray, 635/667 nm fluorescence, BSA, DTT, primary screen (AID 1130); settings: 635 nm fluorescence, higher = more signal;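 also: composite of spot emission at 667 nm and signal to noise over triplicate slides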
Sequence (Q05397 whole entry, looked up): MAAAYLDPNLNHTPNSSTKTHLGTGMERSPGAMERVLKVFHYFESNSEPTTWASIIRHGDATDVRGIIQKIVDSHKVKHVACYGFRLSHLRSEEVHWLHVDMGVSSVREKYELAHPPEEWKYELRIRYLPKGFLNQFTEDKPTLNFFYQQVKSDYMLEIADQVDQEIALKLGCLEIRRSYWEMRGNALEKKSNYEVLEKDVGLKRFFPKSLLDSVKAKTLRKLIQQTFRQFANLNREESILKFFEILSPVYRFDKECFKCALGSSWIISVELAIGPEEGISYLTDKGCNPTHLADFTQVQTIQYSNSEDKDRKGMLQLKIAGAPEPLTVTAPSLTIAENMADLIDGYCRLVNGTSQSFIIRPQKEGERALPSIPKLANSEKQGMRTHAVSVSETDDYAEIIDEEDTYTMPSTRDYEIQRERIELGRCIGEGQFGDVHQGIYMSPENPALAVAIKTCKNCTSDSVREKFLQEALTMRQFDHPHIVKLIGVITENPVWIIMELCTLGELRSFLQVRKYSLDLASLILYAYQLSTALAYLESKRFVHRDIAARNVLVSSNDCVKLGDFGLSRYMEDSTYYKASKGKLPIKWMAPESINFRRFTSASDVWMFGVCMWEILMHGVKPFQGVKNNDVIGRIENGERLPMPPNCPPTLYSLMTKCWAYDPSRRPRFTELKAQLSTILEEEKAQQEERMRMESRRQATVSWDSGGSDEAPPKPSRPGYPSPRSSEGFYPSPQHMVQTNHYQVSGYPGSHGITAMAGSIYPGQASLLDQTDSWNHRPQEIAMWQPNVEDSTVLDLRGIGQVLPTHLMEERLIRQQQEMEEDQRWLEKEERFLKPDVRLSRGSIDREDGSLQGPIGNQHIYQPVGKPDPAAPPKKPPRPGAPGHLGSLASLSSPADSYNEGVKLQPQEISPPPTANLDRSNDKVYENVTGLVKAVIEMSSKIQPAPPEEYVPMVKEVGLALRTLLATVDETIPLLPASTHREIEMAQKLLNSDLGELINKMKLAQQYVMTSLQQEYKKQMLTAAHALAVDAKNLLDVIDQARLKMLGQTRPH
Measured composite z-score values are reported for all entries that follow.
// print number alone

Completed entries (count: 2):
query: Looking for the measured composite z-score of C=CCC(OC(C)=O)[C@@H]1[C@@H](N(Cc2ccc(-c3ccccc3)cc2)C(=O)c2ccc(C)cc2)c2cc(OCCCO)ccc2N1C(=O)c1ccc2ccccc2n1 (stereo partly drawn) , can you help?
result: -0.0203

query: Consider the compound shown here: `C[N+](C)(C)CCCC[C@@H]1NC(=O)[C@@H]2C[C@H](C(=O)NCCCCCCNC(=O)CS)[C@H](c3cccc(OCCO)c3)N2C1=O` What is its recorded composite z-score?
result: -0.379

Let us examine a further case.
query: Quick one: composite z-score for `COc1ccc(C#Cc2ccc3c(c2)[C@]2(C(=O)N3)[C@H](C(=O)N3CCN(c4ncccn4)CC3)[C@H]3C(=O)O[C@H](c4ccccc4)[C@H](c4ccccc4)N3[C@@H]2c2ccc(O)cc2)cc1` ?
result: 0.392

---

tested on: Lefty1; assay: Lefty1 protein binding to printed compounds – biochemical, small-molecule microarray, 635/667 nm fluorescence, primary screen (AID 1139); conditions: fluorescence 635/667, higher = more signal
assay_metric: composite z-score
Give only the figure.

query: Sample COCC1C2CC[C@H]3C(OCc4ccc(F)cc4C(F)(F)F)OC[C@]4(C)[C@H]3C2=C(CN4C(=O)OC(C)(C)C)[C@H](C)C1COC (some centres not stated) — what was its composite z-score?
result: -0.348

query: Consider the compound `C=C(C(=O)CC[C@@H](OC(C)=O)c1ccc(OCCO)cc1)C(C)C` and give its measured composite z-score.
result: -0.12

query: Consider the compound shown here: O=C1OCCC/C=C\[C@H]2OC34C=CCN(CCN5CCOCC5)C(=O)[C@H]3N(CCO)C(=O)[C@@H]4C12 (some centres not stated) What is its recorded composite z-score?
result: -1.57

query: Name the recorded composite z-score for `C=CCOC(=O)[C@@H]1[C@H]2C(=O)O[C@H](c3ccccc3)[C@H](c3ccccc3)N2[C@H](c2ccc(OCCOC(=O)[C@H]3C[C@H]4C(=O)N[C@@H](CCCC[N+](C)(C)C)C(=O)N4[C@H]3c3cccc(OCCO)c3)cc2)[C@@]12C(=O)Nc1ccc(I)cc12` .
result: 1.15

query: Query (compound): `CCOC(=O)C1=CC[C@@H](c2cccc(Cl)c2)N(S(=O)(=O)c2ccc(C)cc2)[C@H]1c1ccc(C#N)cc1` ; field requested: composite z-score
result: 1.09

***
query: What measured composite z-score goes with `[N-]=[N+]=NCc1ccccc1C[C@]1(C(=O)NCCN2CCOCC2)N=C(c2ccc(OCCCO)cc2)O[C@H]1c1ccccc1CN=[N+]=[N-]` ?
result: 0.886

query: composite z-score for O=C1C2C=CC(C(O)C3CC=CCC3)N(n3cnnc3)C2C(=O)N1Cc1ccccc1 (configuration not stated) ?
result: -1.07

query: What does the record list as composite z-score for `Cc1ccc(S[C@]2(C(=O)NCC(F)(F)F)CC(=O)N(C3Cc4ccccc4C3)[C@@H]2c2ccc(CO)cc2I)cc1` ?
result: -1.36

query: Look up composite z-score for this compound: `C=C(CCCC)/C(=C/C[C@@H](OC(=O)c1ccncc1)c1ccc(CO)o1)c1cc(C(=O)OC)ccc1OC`
result: 1.57

query: Name the reported composite z-score value associated with the compound CN1C(=O)C2C=CC(C(O)C=Cc3ccc([N+](=O)[O-])cc3)N(N3CCCCC3)C2C1=O (configuration not stated)
result: 0.393

query: Please report the recorded composite z-score for `CC(C)C(=C=CC[C@H](O)c1ccccc1OCCO)CCO` .
result: 0.653

query: Returns the measured composite z-score for the input compound. Input: `COC(=O)[C@@]1(Cc2ccc(F)cc2)[C@H]2c3cc(C(=O)N(C)C)n(CCCNc4ccc(C(F)(F)F)cc4Cl)c3C[C@H]2CN1C(=O)c1ccccc1`
result: 0.0748
